Let's look at some compounds and their measured fraction unbound.
# ASSAY_METHOD_TEXT: Protein binding in human serum assessed as fraction unbound
# Assay type: ADME, cell-free
# MEASUREMENT_SETUP: read-out: PB

[
  {
    "SMILES_STRING": "CC(C)(O)CC(=O)N[C@@H]1CC[C@@]2(S(=O)(=O)c3ccc(F)cc3)c3ccc(C(F)(C(F)(F)F)C(F)(F)F)cc3CC[C@@H]12",
    "fraction unbound": 0.002
  },
  {
    "SMILES_STRING": "C[C@@](O)(CS(C)(=O)=O)C(=O)N[C@@H]1CC[C@@]2(S(=O)(=O)c3ccc(F)cc3)c3ccc(C(F)(C(F)(F)F)C(F)(F)F)nc3CC[C@@H]12",
    "fraction unbound": 0.022
  },
  {
    "SMILES_STRING": "N#CCCN1C(=O)CC[C@H]1C(=O)N1CC[C@@]2(S(=O)(=O)c3ccc(F)cc3)c3ccc(C(F)(C(F)(F)F)C(F)(F)F)cc3CC[C@@H]12",
    "fraction unbound": 0.018
  },
  {
    "SMILES_STRING": "N#CCCN1C(=O)CC[C@H]1C(=O)N1CC[C@@]2(S(=O)(=O)c3ccc(F)cc3)c3cnc(C(F)(C(F)(F)F)C(F)(F)F)cc3CC[C@@H]12",
    "fraction unbound": 0.12
  },
  {
    "SMILES_STRING": "O=C(C1CCS(=O)(=O)CC1)N1CC[C@@]2(S(=O)(=O)c3ccc(F)cc3)c3ccc(C(F)(C(F)(F)F)C(F)(F)F)cc3CC[C@@H]12",
    "fraction unbound": 0.008
  },
  {
    "SMILES_STRING": "N#CCCN1C(=O)CC[C@H]1C(=O)N1CC[C@@]2(S(=O)(=O)c3ccc(F)cc3)c3ncc(C(F)(C(F)(F)F)C(F)(F)F)cc3CC[C@@H]12",
    "fraction unbound": 0.2
  },
  {
    "SMILES_STRING": "N#CCCN1C(=O)CC[C@H]1C(=O)N1CC[C@@]2(S(=O)(=O)c3ccc(F)cc3)c3ccc(C(F)(C(F)(F)F)C(F)(F)F)nc3CC[C@@H]12",
    "fraction unbound": 0.071
  }
]

* * *

# ASSAY_METHOD_TEXT: Apparent permeability across apical to basolateral membrane in human Caco2 cells
# Format: ADME, cell-based
# MEASUREMENT_SETUP: Caco-2

[
  {
    "SMILES_STRING": "N#CCCN1C(=O)CC[C@H]1C(=O)N1CC[C@@]2(S(=O)(=O)c3ccc(F)cc3)c3ccc(C(F)(C(F)(F)F)C(F)(F)F)cc3CC[C@@H]12",
    "UNIT_INFO": "×10⁻⁶ cm/s",
    "Papp A→B": 17
  },
  {
    "SMILES_STRING": "CC(C)(O)CC(=O)N[C@@H]1CC[C@@]2(S(=O)(=O)c3ccc(F)cc3)c3ccc(C(F)(C(F)(F)F)C(F)(F)F)nc3CC[C@@H]12",
    "UNIT_INFO": "×10⁻⁶ cm/s",
    "Papp A→B": 12
  },
  {
    "SMILES_STRING": "O=C(C1CCS(=O)(=O)CC1)N1CC[C@@]2(S(=O)(=O)c3ccc(F)cc3)c3ccc(C(F)(C(F)(F)F)C(F)(F)F)nc3CC[C@@H]12",
    "UNIT_INFO": "×10⁻⁶ cm/s",
    "Papp A→B": 23
  },
  {
    "SMILES_STRING": "O=C(C1CCS(=O)(=O)CC1)N1CC[C@@]2(S(=O)(=O)c3ccc(F)cc3)c3ccc(C(F)(C(F)(F)F)C(F)(F)F)cc3CC[C@@H]12",
    "UNIT_INFO": "×10⁻⁶ cm/s",
    "Papp A→B": 13
  },
  {
    "SMILES_STRING": "N#CCCN1C(=O)CC[C@H]1C(=O)N1CC[C@@]2(S(=O)(=O)c3ccc(F)cc3)c3ncc(C(F)(C(F)(F)F)C(F)(F)F)cc3CC[C@@H]12",
    "UNIT_INFO": "×10⁻⁶ cm/s",
    "Papp A→B": 9.4
  },
  {
    "SMILES_STRING": "O=C(N[C@@H]1CC[C@@]2(S(=O)(=O)c3ccc(F)cc3)c3ccc(C(F)(C(F)(F)F)C(F)(F)F)nc3CC[C@@H]12)C1CCS(=O)(=O)CC1",
    "UNIT_INFO": "×10⁻⁶ cm/s",
    "Papp A→B": 8.1
  },
  {
    "SMILES_STRING": "N#CCCN1C(=O)CC[C@H]1C(=O)N1CC[C@@]2(S(=O)(=O)c3ccc(F)cc3)c3cnc(C(F)(C(F)(F)F)C(F)(F)F)cc3CC[C@@H]12",
    "UNIT_INFO": "×10⁻⁶ cm/s",
    "Papp A→B": 12
  },
  {
    "SMILES_STRING": "C[C@@](O)(CS(C)(=O)=O)C(=O)N[C@@H]1CC[C@@]2(S(=O)(=O)c3ccc(F)cc3)c3ccc(C(F)(C(F)(F)F)C(F)(F)F)nc3CC[C@@H]12",
    "UNIT_INFO": "×10⁻⁶ cm/s",
    "Papp A→B": 11
  },
  {
    "SMILES_STRING": "CC(C)(O)CC(=O)N[C@@H]1CC[C@@]2(S(=O)(=O)c3ccc(F)cc3)c3ccc(C(F)(C(F)(F)F)C(F)(F)F)cc3CC[C@@H]12",
    "UNIT_INFO": "×10⁻⁶ cm/s",
    "Papp A→B": 15
  },
  {
    "SMILES_STRING": "C[C@@](O)(CS(C)(=O)=O)C(=O)N[C@@H]1CC[C@@]2(S(=O)(=O)c3ccc(F)cc3)c3ccc(C(F)(C(F)(F)F)C(F)(F)F)cc3CC[C@@H]12",
    "UNIT_INFO": "×10⁻⁶ cm/s",
    "Papp A→B": 6.4
  },
  {
    "SMILES_STRING": "C[C@](O)(CS(C)(=O)=O)C(=O)N[C@@H]1CC[C@@]2(S(=O)(=O)c3ccc(F)cc3)c3ccc(C(F)(C(F)(F)F)C(F)(F)F)cc3CC[C@@H]12",
    "UNIT_INFO": "×10⁻⁶ cm/s",
    "Papp A→B": 7.6
  },
  {
    "SMILES_STRING": "CC(C)(O)C(=O)N[C@@H]1CC[C@@]2(S(=O)(=O)c3ccc(F)cc3)c3ccc(C(F)(C(F)(F)F)C(F)(F)F)nc3CC[C@@H]12",
    "UNIT_INFO": "×10⁻⁶ cm/s",
    "Papp A→B": 18
  },
  {
    "SMILES_STRING": "N#CCCN1C(=O)CC[C@H]1C(=O)N1CC[C@@]2(S(=O)(=O)c3ccc(F)cc3)c3ccc(C(F)(C(F)(F)F)C(F)(F)F)nc3CC[C@@H]12",
    "UNIT_INFO": "×10⁻⁶ cm/s",
    "Papp A→B": 19
  },
  {
    "SMILES_STRING": "O=C(N[C@@H]1CC[C@@]2(S(=O)(=O)c3ccc(F)cc3)c3ccc(C(F)(C(F)(F)F)C(F)(F)F)cc3CC[C@@H]12)C1CCS(=O)(=O)CC1",
    "UNIT_INFO": "×10⁻⁶ cm/s",
    "Papp A→B": 7.3
  }
]
